Tested on: Staphylococcus epidermidis (SEPI 30593)
assay-remarks: MIC by agar dilution, SEPI 30593
Assay type: cell-based
condition-details: Staphylococcus epidermidis, Minimum Inhibitory Concentration, strain SEPI 30593
Below, each entry is listed with its recorded MIC.
property-label: MIC (µg/mL)

1. CCC(=S)NC[C@H]1CN(c2ccc(N3CCN(C(C)=S)CC3)c(F)c2)C(=O)O1    0.25
2. CCC(=S)NC[C@H]1CN(c2ccc(N3CCN(C(=O)[C@H](O)CO)CC3)c(F)c2)C(=O)O1    0.5
3. CCC(=S)NC[C@H]1CN(c2ccc(N3CCN(C(=O)C4(O)CC4)CC3)c(F)c2)C(=O)O1    1
4. CCC(=S)NC[C@H]1CN(c2ccc(N3CCN(C(=O)CCO)CC3)c(F)c2)C(=O)O1    1
5. CCC(=S)NC[C@H]1CN(c2ccc(N3CCN(C(=O)C(C)=O)CC3)c(F)c2)C(=O)O1    1
6. CCC(=S)NC[C@H]1CN(c2ccc(N3CCN(C(=O)[C@H](O)c4ccccc4)CC3)c(F)c2)C(=O)O1    1
7. CCC(=S)NC[C@H]1CN(c2ccc(N3CCN(C(=O)[C@@H](O)Cc4ccccc4)CC3)c(F)c2)C(=O)O1    2
8. CCC(=S)NC[C@H]1CN(c2ccc(N3CCN(C(=O)CS(C)(=O)=O)CC3)c(F)c2)C(=O)O1    0.5
9. CCC(=S)NC[C@H]1CN(c2ccc(N3CCN(C(=O)[C@@H](O)COC)CC3)c(F)c2)C(=O)O1    1
10. CCC(=S)NC[C@H]1CN(c2ccc(N3CCN(C(=O)C(CO)OC)CC3)c(F)c2)C(=O)O1 (stereo partly shown)    2
11. CCC(=S)NC[C@H]1CN(c2ccc(N3CCN(C(=O)COc4ccccc4)CC3)c(F)c2)C(=O)O1    0.5
12. CCC(=S)NC[C@H]1CN(c2ccc(N3CCN(C#N)CC3)c(F)c2)C(=O)O1    0.25
13. CCC(=S)NC[C@H]1CN(c2ccc(N3CCN(C(=O)[C@H](O)Cc4ccccc4)CC3)c(F)c2)C(=O)O1    1

---

Below, each entry is listed with its recorded melting point.
property-label: melting point

1. CCC(=S)NC[C@H]1CN(c2ccc(N3CCN(C(=O)[C@@H](O)COC)CC3)c(F)c2)C(=O)O1    190 to 191 °C (dec.)
2. CCC(=S)NC[C@H]1CN(c2ccc(N3CCN(C(=O)[C@@H](O)CO)CC3)c(F)c2)C(=O)O1    142 °C (dec.)
3. CCC(=S)NC[C@H]1CN(c2ccc(N3CCN(C(=O)[C@@H](O)Cc4ccccc4)CC3)c(F)c2)C(=O)O1    174 to 175 °C
4. CCC(=S)NC[C@H]1CN(c2ccc(N3CCN(C(=O)[C@H](O)Cc4ccccc4)CC3)c(F)c2)C(=O)O1    128 to 130 °C (dec.)
5. CCC(=S)NC[C@H]1CN(c2ccc(N3CCN(C(=O)[C@H](O)CO)CC3)c(F)c2)C(=O)O1    132 °C (dec.)
6. CCC(=S)NC[C@H]1CN(c2ccc(N3CCN(C(=O)COc4ccccc4)CC3)c(F)c2)C(=O)O1    171 to 172 °C
7. CCC(=S)NC[C@H]1CN(c2ccc(N3CCN(C(=O)COC(=O)OCCOC)CC3)c(F)c2)C(=O)O1    150 to 151 °C
8. CCC(=S)NC[C@H]1CN(c2ccc(N3CCN(C(C)=S)CC3)c(F)c2)C(=O)O1    209 to 210 °C
9. CCC(=S)NC[C@H]1CN(c2ccc(N3CCN(C(=O)C4(O)CC4)CC3)c(F)c2)C(=O)O1    185 to 186 °C (dec.)
10. CCC(=S)NC[C@H]1CN(c2ccc(N3CCN(C#N)CC3)c(F)c2)C(=O)O1    182 to 184 °C
11. CCC(=S)NC[C@H]1CN(c2ccc(N3CCN(C(=O)C(C)=O)CC3)c(F)c2)C(=O)O1    173 to 175 °C (dec.)

---

Below, each entry is listed with its recorded MIC.
System: Enterococcus faecalis (EFAE 9217)
assay-remarks: MIC by agar dilution, EFAE 9217
Type: cell-based
condition-details: Enterococcus faecalis, Minimum Inhibitory Concentration, strain EFAE 9217
property-label: MIC (µg/mL)

1) CCC(=S)NC[C@H]1CN(c2ccc(N3CCN(C#N)CC3)c(F)c2)C(=O)O1 [EX 5]    0.25
2) CCC(=S)NC[C@H]1CN(c2ccc(N3CCN(C(=O)[C@H](O)Cc4ccccc4)CC3)c(F)c2)C(=O)O1 [EX 20]    1
3) CCC(=S)NC[C@H]1CN(c2ccc(N3CCN(C(=O)CCO)CC3)c(F)c2)C(=O)O1 [EX 13]    1
4) CCC(=S)NC[C@H]1CN(c2ccc(N3CCN(C(=O)COc4ccccc4)CC3)c(F)c2)C(=O)O1 [EX 15]    0.5
5) CCC(=S)NC[C@H]1CN(c2ccc(N3CCN(C(=O)CSC)CC3)c(F)c2)C(=O)O1 [EX 2]    1
6) CCC(=S)NC[C@H]1CN(c2ccc(N3CCN(C(=O)[C@@H](O)COC)CC3)c(F)c2)C(=O)O1 [EX 8]    1
7) CCC(=S)NC[C@H]1CN(c2ccc(N3CCN(C(=O)C(C)=O)CC3)c(F)c2)C(=O)O1 [EX 12]    1
8) CCC(=S)NC[C@H]1CN(c2ccc(N3CCN(C(C)=S)CC3)c(F)c2)C(=O)O1 [EX 4]    0.5

---

System: Streptococcus pyogens (SPYO 152)
assay-remarks: MIC by agar dilution, SPYO 152
Assay type: cell-based
condition-details: Streptococcus, Minimum Inhibitory Concentration, strain SPYO 152
Below, each entry is listed with its recorded MIC.
property-label: MIC

1. CCC(=S)NC[C@H]1CN(c2ccc(N3CCN(C(=O)C4(O)CC4)CC3)c(F)c2)C(=O)O1 [EX 14]    1 µg/mL
2. CCC(=S)NC[C@H]1CN(c2ccc(N3CCN(C(=O)C(CO)OC)CC3)c(F)c2)C(=O)O1 (some centres unmarked) [EX 10]    1 µg/mL
3. CCC(=S)NC[C@H]1CN(c2ccc(N3CCN(C(=O)[C@@H](O)CO)CC3)c(F)c2)C(=O)O1 [EX 16]    0.5 µg/mL
4. CCC(=S)NC[C@H]1CN(c2ccc(N3CCN(C(=O)[C@@H](OC(C)=O)c4ccccc4)CC3)c(F)c2)C(=O)O1 [EX 22]    4 µg/mL
5. CCC(=S)NC[C@H]1CN(c2ccc(N3CCN(C(=O)C(C)=O)CC3)c(F)c2)C(=O)O1 [EX 12]    0.5 µg/mL
6. CCC(=S)NC[C@H]1CN(c2ccc(N3CCN(C(=O)CS(C)(=O)=O)CC3)c(F)c2)C(=O)O1 [EX 3]    0.5 µg/mL
7. CCC(=S)NC[C@H]1CN(c2ccc(N3CCN(C(C)=S)CC3)c(F)c2)C(=O)O1 [EX 4]    0.125 µg/mL
8. CCC(=S)NC[C@H]1CN(c2ccc(N3CCN(C(=O)[C@H](O)CO)CC3)c(F)c2)C(=O)O1 [EX 17]    0.5 µg/mL

---

System: Streptococcus pyogens (SPYO 152)
assay-remarks: MIC by agar dilution, SPYO 152
Format: cell-based
condition-details: Streptococcus, Minimum Inhibitory Concentration, strain SPYO 152
Checkbox rule: MIC lower than 0.5 µg/mL = 1 (yes); MIC not lower than 0.5 µg/mL = 0 (no).

1. CCC(=S)NC[C@H]1CN(c2ccc(N3CCN(C(=O)COC(=O)OCCOC)CC3)c(F)c2)C(=O)O1 [EX 7]    1 (yes)
2. CCC(=S)NC[C@H]1CN(c2ccc(N3CCN(C(=O)[C@H](O)Cc4ccccc4)CC3)c(F)c2)C(=O)O1 [EX 20]    0 (no)
3. CCC(=S)NC[C@H]1CN(c2ccc(N3CCN(C(=O)CSC)CC3)c(F)c2)C(=O)O1 [EX 2]    0 (no)
4. CCC(=S)NC[C@H]1CN(c2ccc(N3CCN(C#N)CC3)c(F)c2)C(=O)O1 [EX 5]    1 (yes)
5. CCC(=S)NC[C@H]1CN(c2ccc(N3CCN(C(=O)[C@@H](O)Cc4ccccc4)CC3)c(F)c2)C(=O)O1 [EX 19]    0 (no)
6. CCC(=S)NC[C@H]1CN(c2ccc(N3CCN(C(=O)[C@H](O)c4ccccc4)CC3)c(F)c2)C(=O)O1 [EX 21]    0 (no)

---

System: H. influenzae (HINF 30063)
assay-remarks: MIC by agar dilution, HINF 30063
Assay type: cell-based
condition-details: Haemophilus influenzae, Minimum Inhibitory Concentration, strain HINF 30063
From the text: The oxazolidinone antibacterial agents of this invention have useful activity against a variety of organisms. The in vitro activity of compounds of this invention can be assessed by standard testing procedures such as the determination of minimum inhibitory concentration (MIC) by agar dilution as described in “Approved Standard. […]
property-label: MIC

1) CCC(=S)NC[C@H]1CN(c2ccc(N3CCN(C(=O)[C@H](O)c4ccccc4)CC3)c(F)c2)C(=O)O1 [EX 21]    64 µg/mL
2) CCC(=S)NC[C@H]1CN(c2ccc(N3CCN(C(=O)[C@@H](OC(C)=O)c4ccccc4)CC3)c(F)c2)C(=O)O1 [EX 22]    > 64 µg/mL
3) CCC(=S)NC[C@H]1CN(c2ccc(N3CCN(C(=O)CS(C)(=O)=O)CC3)c(F)c2)C(=O)O1 [EX 3]    8 µg/mL
4) CCC(=S)NC[C@H]1CN(c2ccc(N3CCN(C(=O)COC(=O)OCCOC)CC3)c(F)c2)C(=O)O1 [EX 7]    4 µg/mL
5) CCC(=S)NC[C@H]1CN(c2ccc(N3CCN(C(=O)[C@@H](O)CO)CC3)c(F)c2)C(=O)O1 [EX 16]    8 µg/mL
6) CCC(=S)NC[C@H]1CN(c2ccc(N3CCN(C(C)=S)CC3)c(F)c2)C(=O)O1 [EX 4]    1 µg/mL
7) CCC(=S)NC[C@H]1CN(c2ccc(N3CCN(C(=O)[C@@H](O)COC)CC3)c(F)c2)C(=O)O1 [EX 8]    16 µg/mL
8) CCC(=S)NC[C@H]1CN(c2ccc(N3CCN(C#N)CC3)c(F)c2)C(=O)O1 [EX 5]    2 µg/mL
9) CCC(=S)NC[C@H]1CN(c2ccc(N3CCN(C(=O)CSC)CC3)c(F)c2)C(=O)O1 [EX 2]    > 64 µg/mL
10) CCC(=S)NC[C@H]1CN(c2ccc(N3CCN(C(=O)COc4ccccc4)CC3)c(F)c2)C(=O)O1 [EX 15]    32 µg/mL
11) CCC(=S)NC[C@H]1CN(c2ccc(N3CCN(C(=O)C4(O)CC4)CC3)c(F)c2)C(=O)O1 [EX 14]    32 µg/mL
12) CCC(=S)NC[C@H]1CN(c2ccc(N3CCN(C(=O)[C@@H](O)Cc4ccccc4)CC3)c(F)c2)C(=O)O1 [EX 19]    > 64 µg/mL
13) CCC(=S)NC[C@H]1CN(c2ccc(N3CCN(C(=O)[C@H](O)CO)CC3)c(F)c2)C(=O)O1 [EX 17]    8 µg/mL
14) CCC(=S)NC[C@H]1CN(c2ccc(N3CCN(C(=O)CCO)CC3)c(F)c2)C(=O)O1 [EX 13]    8 µg/mL
15) CCC(=S)NC[C@H]1CN(c2ccc(N3CCN(C(=O)C(CO)OC)CC3)c(F)c2)C(=O)O1 (some centres unmarked) [EX 10]    16 µg/mL
16) CCC(=S)NC[C@H]1CN(c2ccc(N3CCN(C(=O)C(C)=O)CC3)c(F)c2)C(=O)O1 [EX 12]    8 µg/mL
17) CCC(=S)NC[C@H]1CN(c2ccc(N3CCN(C(=O)[C@H](O)Cc4ccccc4)CC3)c(F)c2)C(=O)O1 [EX 20]    64 µg/mL
